Biological target: CK1α (Homo sapiens, UniProt P48729+Q96SW2)
Construct: Whole cell extracts were prepared using RIPA buffer; endogenous in cells; host or cells: MV-4-11
Sequence (P48729 whole entry): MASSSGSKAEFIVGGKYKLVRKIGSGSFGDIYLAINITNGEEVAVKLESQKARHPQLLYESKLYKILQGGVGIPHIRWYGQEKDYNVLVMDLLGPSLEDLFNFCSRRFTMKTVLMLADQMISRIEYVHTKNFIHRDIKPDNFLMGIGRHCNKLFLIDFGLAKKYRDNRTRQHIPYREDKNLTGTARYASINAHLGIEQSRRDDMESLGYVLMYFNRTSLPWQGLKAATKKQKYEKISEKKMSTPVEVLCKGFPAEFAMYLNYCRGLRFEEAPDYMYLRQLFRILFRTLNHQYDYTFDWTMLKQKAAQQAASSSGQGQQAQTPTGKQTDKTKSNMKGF
Sequence (Q96SW2 whole entry): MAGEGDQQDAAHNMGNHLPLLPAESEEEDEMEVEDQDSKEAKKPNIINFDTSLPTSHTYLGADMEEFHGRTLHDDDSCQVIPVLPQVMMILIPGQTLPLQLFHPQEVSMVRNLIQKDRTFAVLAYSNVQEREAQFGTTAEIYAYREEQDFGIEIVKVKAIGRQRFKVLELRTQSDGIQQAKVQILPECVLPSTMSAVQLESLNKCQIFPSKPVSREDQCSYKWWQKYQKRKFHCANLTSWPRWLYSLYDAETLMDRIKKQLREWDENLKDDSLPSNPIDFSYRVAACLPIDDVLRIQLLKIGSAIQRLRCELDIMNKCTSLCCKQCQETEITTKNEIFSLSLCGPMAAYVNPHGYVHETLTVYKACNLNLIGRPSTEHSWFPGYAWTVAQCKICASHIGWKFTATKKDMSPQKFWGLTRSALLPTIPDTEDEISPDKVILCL
Sequence (Q16531 whole entry partner): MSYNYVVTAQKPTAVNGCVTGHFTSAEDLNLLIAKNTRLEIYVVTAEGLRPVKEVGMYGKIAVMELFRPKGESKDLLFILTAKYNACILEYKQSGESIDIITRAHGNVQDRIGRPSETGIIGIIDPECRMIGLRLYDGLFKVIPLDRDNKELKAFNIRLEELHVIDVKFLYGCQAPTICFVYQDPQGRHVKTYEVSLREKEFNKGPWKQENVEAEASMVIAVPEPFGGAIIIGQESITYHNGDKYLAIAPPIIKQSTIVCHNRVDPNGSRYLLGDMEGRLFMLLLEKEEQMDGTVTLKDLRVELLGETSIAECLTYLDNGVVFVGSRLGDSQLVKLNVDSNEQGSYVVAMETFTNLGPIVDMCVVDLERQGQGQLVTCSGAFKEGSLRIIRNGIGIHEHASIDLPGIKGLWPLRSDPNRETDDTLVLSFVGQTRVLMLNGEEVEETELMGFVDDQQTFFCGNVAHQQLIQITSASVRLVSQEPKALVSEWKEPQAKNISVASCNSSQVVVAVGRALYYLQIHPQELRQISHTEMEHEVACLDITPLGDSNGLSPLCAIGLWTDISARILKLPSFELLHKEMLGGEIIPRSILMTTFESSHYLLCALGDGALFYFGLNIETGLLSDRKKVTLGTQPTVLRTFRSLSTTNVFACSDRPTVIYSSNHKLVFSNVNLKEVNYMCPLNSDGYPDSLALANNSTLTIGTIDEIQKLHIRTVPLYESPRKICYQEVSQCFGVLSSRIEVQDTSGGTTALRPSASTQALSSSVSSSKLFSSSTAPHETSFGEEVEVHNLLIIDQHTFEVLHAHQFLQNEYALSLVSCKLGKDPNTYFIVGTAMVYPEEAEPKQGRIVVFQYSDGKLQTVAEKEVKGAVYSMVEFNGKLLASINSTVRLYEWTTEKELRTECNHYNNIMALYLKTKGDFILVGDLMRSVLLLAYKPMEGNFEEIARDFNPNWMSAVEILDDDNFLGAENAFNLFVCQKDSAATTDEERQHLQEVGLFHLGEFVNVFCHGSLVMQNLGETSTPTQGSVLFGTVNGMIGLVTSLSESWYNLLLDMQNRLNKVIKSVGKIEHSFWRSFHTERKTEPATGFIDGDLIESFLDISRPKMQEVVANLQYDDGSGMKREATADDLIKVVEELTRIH
Test: CK1α degradation assay (Western blot, MV-4-11 cells)
Assay type: cell-based
Conditions: MV4-11, 6-8 h
Experimental: MV-4-11 cells were grown in RPMI 1640 media supplemented with 10% fetal bovine serum, streptomycin and penicillin. Cells were cultured at approximately 10^6 cells per mL and incubated in DMSO or the indicated compound for 6-8 h. […] For Western blot analysis, whole cell protein extracts were separated on 4-12% SDS-polyacrylamide gels, transferred to nitrocellulose and probed with the indicated primary antibodies. […] The signal was detected using the Odyssey Imaging System (LI-COR). […]
Field: Dmax at 1 µM. Provide a value for each of the molecules that follow.

Report Dmax at 1 µM for Cn1ncc(-c2nc(N[C@H]3CC[C@H](NCC(=O)NCCNCC(=O)NCc4cc5c(s4)C(=O)N(C4CCC(=O)NC4=O)C5)CC3)ncc2Cl)c1CC1CC1 (some centres unmarked) please.
25 to 50%

Would you mind telling me what Dmax at 1 µM value was observed for "Cn1ncc(-c2nc(N[C@H]3CC[C@H](NCCOCCOCCOCCNCc4ccc(OCc5scc6c5CN([C@H]5CCC(=O)NC5=O)C6=O)cc4)CC3)ncc2Cl)c1CC1CC1" ?
50 to 75%

So what does the record say about Dmax at 1 µM for Cn1ncc(-c2nc(N[C@H]3CC[C@H](NCC(=O)NCCCCCNCC(=O)NCc4cc5c(s4)C(=O)N(C4CCC(=O)NC4=O)C5)CC3)ncc2Cl)c1CC1CC1 (some centres unmarked) ?
< 25%

Which Dmax at 1 µM value belongs to Cn1ncc(-c2nc(N[C@H]3CC[C@H](NCC(=O)NCCOCCOCCOCCNc4cccc5c4C(=O)N(C4CCC(=O)NC4=O)C5=O)CC3)ncc2F)c1CC1CC1 (some centres unmarked) ?
25 to 50%

Dmax at 1 µM lookup needed for Cn1ncc(-c2nc(N[C@H]3CC[C@H](NCC(=O)NCCCCNCC(=O)NCc4scc5c4C(=O)N(C4CCC(=O)NC4=O)C5=O)CC3)ncc2Cl)c1CC1CC1 (some centres unmarked) , thanks.
25 to 50%

====

Target: CDK9 (Homo sapiens, UniProt P50750)
Construct: Whole cell extracts were prepared using RIPA buffer; endogenous in cells; host or cells: MV-4-11
Sequence (P50750 whole entry): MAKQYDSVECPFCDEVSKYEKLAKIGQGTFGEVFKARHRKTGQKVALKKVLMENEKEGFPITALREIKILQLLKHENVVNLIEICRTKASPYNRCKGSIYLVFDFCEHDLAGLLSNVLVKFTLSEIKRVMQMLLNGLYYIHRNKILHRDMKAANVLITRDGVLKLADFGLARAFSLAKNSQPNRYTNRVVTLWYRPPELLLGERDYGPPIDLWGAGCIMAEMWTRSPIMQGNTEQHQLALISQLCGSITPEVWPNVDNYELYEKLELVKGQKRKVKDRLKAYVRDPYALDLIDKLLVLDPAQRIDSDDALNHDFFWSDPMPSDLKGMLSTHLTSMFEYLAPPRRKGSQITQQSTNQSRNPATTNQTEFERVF
Assay: CDK9 degradation assay (Western blot, MV-4-11 cells)
Type: cell-based
Conditions: MV4-11, 1 μM, 6-8 h
Description: MV-4-11 cells were grown in RPMI 1640 media supplemented with 10% fetal bovine serum, streptomycin and penicillin. Cells were cultured at approximately 10^6 cells per mL and incubated in DMSO or the indicated compound for 6-8 h. […] For Western blot analysis, whole cell protein extracts were separated on 4-12% SDS-polyacrylamide gels, transferred to nitrocellulose and probed with the indicated primary antibodies. […] The signal was detected using the Odyssey Imaging System (LI-COR). […]
measured-property: Dmax at 1 µM

Can you look up the measured Dmax at 1 µM of Cn1ncc(-c2nc(N[C@H]3CC[C@H](NCC(=O)NCCNCC(=O)NCc4cc5c(s4)C(=O)N(C4CCC(=O)NC4=O)C5)CC3)ncc2Cl)c1CC1CC1 (some centres unmarked) for me?
≥ 75%

Could you share which Dmax at 1 µM value was measured for Cn1ncc(-c2nc(N[C@H]3CC[C@H](NCC(=O)NCCCCCNCC(=O)NCc4cc5c(s4)C(=O)N(C4CCC(=O)NC4=O)C5)CC3)ncc2F)c1CC1CC1 (some centres unmarked) ?
50 to 75%

State the recorded Dmax at 1 µM for this entry: CC(C)(C)c1cnc(CSc2cnc(NC(=O)C3CCN(CC(=O)NCCOCCOCCOCCNCC(=O)NCc4scc5c4CN(C4CCC(=O)NC4=O)C5=O)CC3)s2)o1 (centres unmarked)
≥ 75%

Dmax at 1 µM lookup needed for Cn1ncc(-c2nc(N[C@H]3CC[C@H](NCC(=O)NCCCCCNCC(=O)NCc4scc5c4CN(C4CCC(=O)NC4=O)C5=O)CC3)ncc2Cl)c1CC1CC1 (some centres unmarked) , thanks.
≥ 75%

What Dmax at 1 µM value was documented for this compound, CN(CCNC(=O)CN1CCC(C(=O)Nc2ncc(SCc3ncc(C(C)(C)C)o3)s2)CC1)CCNC(=O)NCc1cc2c(s1)C(=O)N(C1CCC(=O)NC1=O)C2 (centres unmarked) ?
≥ 75%

# input compound: Cn1ncc(-c2nc(N[C@H]3CC[C@H](NCC(=O)NCCCCNCC(=O)NCc4scc5c4CN(C4CCC(=O)NC4=O)C5=O)CC3)ncc2Cl)c1CC1CC1 (some centres unmarked) ; wanted: its Dmax at 1 µM
≥ 75%

For Cn1ncc(-c2nc(N[C@H]3CC[C@H](NCC(=O)NCCCCCNC(=O)NCc4cc5c(s4)C(=O)N(C4CCC(=O)NC4=O)C5)CC3)ncc2Cl)c1CC1CC1 (some centres unmarked) , what is its reported Dmax at 1 µM?
≥ 75%

Report Dmax at 1 µM for Cn1ncc(-c2nc(N[C@H]3CC[C@H](NCCCCCCCCNC(=O)NCc4cc5c(s4)C(=O)N(C4CCC(=O)NC4=O)C5)CC3)ncc2F)c1CC1CC1 (some centres unmarked) please.
≥ 75%

Suppose we examine the compound Cn1ncc(-c2nc(N[C@H]3CC[C@H](NCC(=O)NCCCCNCC(=O)NCc4scc5c4CN(C4CCC(=O)NC4=O)C5=O)CC3)ncc2F)c1CC1CC1 (some centres unmarked) ; what Dmax at 1 µM value has been reported?
≥ 75%

// Dmax at 1 µM lookup, key: CC(C)(C)c1cnc(CSc2cnc(NC(=O)C3CCN(CC(=O)NCCOCCOCCNC(=O)NCc4cc5c(s4)C(=O)N(C4CCC(=O)NC4=O)C5)CC3)s2)o1 (centres unmarked)
≥ 75%

Could you share which Dmax at 1 µM value was measured for CC(C)(C)c1cnc(CSc2cnc(NC(=O)C3CCN(CC(=O)NCCOCCOCCOCCNCC(=O)NCc4cc5c(s4)C(=O)N(C4CCC(=O)NC4=O)C5)CC3)s2)o1 (centres unmarked) ?
≥ 75%

====

molecular target: IKAROS (Homo sapiens, UniProt Q13422+Q96SW2); construct: endogenous in cells; host or cells: MV-4-11; experiment: IKAROS degradation assay (Western blot, MV-4-11 cells); type: cell-based; settings: MV4-11, 6-8 h
Sequence (Q13422 whole entry, one chain of several): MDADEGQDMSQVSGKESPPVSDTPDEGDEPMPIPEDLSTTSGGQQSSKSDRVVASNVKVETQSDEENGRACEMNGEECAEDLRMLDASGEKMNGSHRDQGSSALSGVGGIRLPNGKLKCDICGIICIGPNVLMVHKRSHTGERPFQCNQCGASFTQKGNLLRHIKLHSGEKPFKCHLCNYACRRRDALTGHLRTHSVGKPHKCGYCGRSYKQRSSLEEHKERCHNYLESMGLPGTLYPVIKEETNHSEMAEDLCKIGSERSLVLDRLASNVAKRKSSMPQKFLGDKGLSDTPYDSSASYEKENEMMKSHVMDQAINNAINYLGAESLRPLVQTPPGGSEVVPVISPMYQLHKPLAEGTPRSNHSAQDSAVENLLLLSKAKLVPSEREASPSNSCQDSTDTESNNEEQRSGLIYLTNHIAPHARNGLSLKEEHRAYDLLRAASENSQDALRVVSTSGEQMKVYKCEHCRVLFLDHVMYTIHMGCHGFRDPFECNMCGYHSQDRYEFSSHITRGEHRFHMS
For each entry below, report its Dmax at 1 µM value.

Would you kindly share the measured Dmax at 1 µM for CC(C)(C)c1cnc(CSc2cnc(NC(=O)C3CCN(CC(=O)NCCCCNCc4ccc(OCc5scc6c5CN([C@H]5CCC(=O)NC5=O)C6=O)cc4)CC3)s2)o1 (stereo in doubt) ?
50 to 75%

// Dmax at 1 µM lookup, key: Cn1ncc(-c2nc(N[C@H]3CC[C@H](NCCCCCCNC(=O)NCc4cc5c(s4)C(=O)N(C4CCC(=O)NC4=O)C5)CC3)ncc2Cl)c1CC1CC1 (stereo partly drawn)
25 to 50%

Request the reported Dmax at 1 µM associated with Cn1ncc(-c2nc(N[C@H]3CC[C@H](NCC(=O)NCCNC(=O)NCc4cc5c(s4)C(=O)N(C4CCC(=O)NC4=O)C5)CC3)ncc2Cl)c1CC1CC1 (stereo partly drawn)
25 to 50%

====

Give inhibition at 1 µM for every item shown.
test system: IL-1β; assay: IL-1β inhibition assay, LPS-induced PBMCs / CD14+ monocytes (Meso Scale); assay type: cell-based; details: 1 h pretreatment, 100 ng/mL LPS 18-24 h

// inhibition at 1 µM lookup, key: Cn1ncc(-c2nc(N[C@H]3CC[C@H](NCC(=O)NCCCCNCC(=O)NCc4cc5c(s4)C(=O)N(C4CCC(=O)NC4=O)C5=O)CC3)ncc2F)c1CC1CC1 (some centres unmarked)
> 90%

Return reported inhibition at 1 µM; argument: CN(CCNCC(=O)NCc1scc2c1CN(C1CCC(=O)NC1=O)C2=O)CCNC(=O)CN1CCC(C(=O)Nc2ncc(SCc3ncc(C(C)(C)C)o3)s2)CC1 (centres unmarked)
50 to 70%

Look at this compound and give its reported inhibition at 1 µM. Cn1ncc(-c2nc(N[C@H]3CC[C@H](NC(=O)CCCCCCNCC(=O)NCc4ccc(COc5cccc6c5CN(C5CCC(=O)NC5=O)C6=O)cc4)CC3)ncc2Cl)c1CC1CC1 (some centres unmarked)
< 50%

Look up inhibition at 1 µM: Cn1ncc(-c2nc(N[C@H]3CC[C@H](NCC(=O)NCCOCCOCC(=O)NCc4ccc(COc5cccc6c5CN(C5CCC(=O)NC5=O)C6=O)cc4)CC3)ncc2Cl)c1CC1CC1 (some centres unmarked)
> 90%

What value of inhibition at 1 µM has been recorded for this entry: Cc1nc2c(CNC(=O)NCCCCCCCCN[C@H]3CC[C@H](Nc4ncc(Cl)c(-c5cnn(C)c5CC5CC5)n4)CC3)scc2c(=O)n1C1CCC(=O)NC1=O (some centres unmarked)
> 90%

====

tested on: IL-6; test: IL-6 inhibition assay, LPS-induced PBMCs / CD14+ monocytes (Meso Scale); type: cell-based; settings: 1 h pretreatment, 100 ng/mL LPS 18-24 h
Exercise: for every item that follows, state its recorded inhibition at 1 µM.

Give its inhibition at 1 µM value. Item: Cn1ncc(-c2nc(N[C@H]3CC[C@H](NCC(=O)NCCOCCOCCOCCNCC(=O)NCc4cc5c(s4)C(=O)N(C4CCC(=O)NC4=O)C5)CC3)ncc2Cl)c1CC1CC1 (some centres unmarked)
< 50%

Given the entry Cn1ncc(-c2cc(N[C@H]3CC[C@H](NCCCCCCCCNC(=O)NCc4cc5c(s4)C(=O)N(C4CCC(=O)NC4=O)C5)CC3)ncc2F)c1CC1CC1 (some centres unmarked) , report its measured inhibition at 1 µM.
70 to 90%

Give its inhibition at 1 µM value. Item: Cn1ncc(-c2nc(N[C@H]3CC[C@H](NCC(=O)NCCCCNCC(=O)NCc4cc5c(s4)C(=O)N(C4CCC(=O)NC4=O)C5=O)CC3)ncc2Cl)c1CC1CC1 (some centres unmarked)
70 to 90%

What value of measured inhibition at 1 µM is listed for "Cn1ncc(-c2nc(N[C@H]3CC[C@H](NC(=O)CCCCCCNCC(=O)Nc4cccc5c4CN([C@H]4CCCC(=O)NC4=O)C5=O)CC3)ncc2Cl)c1CC1CC1" ?
< 50%

# input molecule: Cn1ncc(-c2nc(N[C@H]3CC[C@H](NCC(=O)NCCOCCOCCOCCNc4cccc5c4CN(C4CCC(=O)NC4=O)C5=O)CC3)ncc2F)c1CC1CC1 (some centres unmarked) ; wanted: its inhibition at 1 µM
> 90%
